Where these numbers come from: patent US12091776B2

For each of the molecules below, state its Adam17 Fold Change.
- TARGET_SYSTEM: T1, ADAM17 (Homo sapiens, UniProt P78536)
- T1 construct: purchased RnD Systems
- T1 sequence (P78536 215-824): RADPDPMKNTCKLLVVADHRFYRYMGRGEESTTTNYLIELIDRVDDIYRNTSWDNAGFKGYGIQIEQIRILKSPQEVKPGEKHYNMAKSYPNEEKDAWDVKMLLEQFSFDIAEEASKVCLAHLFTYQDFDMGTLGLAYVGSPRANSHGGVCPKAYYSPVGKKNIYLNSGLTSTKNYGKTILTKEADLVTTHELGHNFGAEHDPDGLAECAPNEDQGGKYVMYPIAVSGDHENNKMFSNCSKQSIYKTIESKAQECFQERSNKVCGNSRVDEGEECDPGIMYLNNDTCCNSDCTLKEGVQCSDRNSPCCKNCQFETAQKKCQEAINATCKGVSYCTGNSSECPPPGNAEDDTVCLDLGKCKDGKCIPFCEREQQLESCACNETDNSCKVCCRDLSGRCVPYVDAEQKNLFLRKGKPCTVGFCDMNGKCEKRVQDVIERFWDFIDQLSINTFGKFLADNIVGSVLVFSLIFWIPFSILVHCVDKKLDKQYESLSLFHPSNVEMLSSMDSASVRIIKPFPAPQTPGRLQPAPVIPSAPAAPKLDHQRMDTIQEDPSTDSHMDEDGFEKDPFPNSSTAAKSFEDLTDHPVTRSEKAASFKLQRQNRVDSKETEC
- TEST_NAME: SEPARATE assay: human peptidome library digest with ADAM17
- Format: biochemical
- CONDITION_SUMMARY: top 20 enriched peptides, human library (90-aa tiles); digest vs mock digest
Report the figure in fold without appending any unit label.

Query: Indicate the recorded Adam17 Fold Change value for this molecule: RLALPLRSLSASSGWNESCSSQSDISLDHVQRRRSRLKEPPELQSSERAAGSPPAPGTMSKHRGKSSATCRCCVTYCEGENHLRNKSRAE (protein, listed as Homo sapiens) RLALPLRSLSASSGWNESCSSQSDISLDHVQRRRSRLKEPPELQSSERAAGSPPAPGTMSKHRGKSSATCRCCVTYCEGENHLRNKSRAE
Result: 39.89

Query: Indicate the recorded Adam17 Fold Change value for this molecule: KAGVVTLHSVGPTAATGTTAGTGLLQTSKPLVTSVANTVTTVSLQPEKPVVSGTAVTLSLPAVTFGETSGAAICLPSVKPVVSSAGTTS (protein, listed as Homo sapiens) KAGVVTLHSVGPTAATGTTAGTGLLQTSKPLVTSVANTVTTVSLQPEKPVVSGTAVTLSLPAVTFGETSGAAICLPSVKPVVSSAGTTS
Result: 39.07

Query: Indicate the recorded Adam17 Fold Change value for this molecule: ATPGAPGSSTPGEADIGNTSFGKSGKSGHDSLTVLNPAFLRRTPTVSAASTTSSPVSKHTDAASATAVTISGSKPGTPGTPGGATSGGKI (protein, listed as Homo sapiens) ATPGAPGSSTPGEADIGNTSFGKSGKSGHDSLTVLNPAFLRRTPTVSAASTTSSPVSKHTDAASATAVTISGSKPGTPGTPGGATSGGKI
Result: 39.34
